# measurementNotes: Cycloheximide Counterscreen for Small Molecule Inhibitors of Shiga Toxin; note: read at 38.3 µM for the half of the compounds with a filed dose; 0% is about no effect
# particulars: cell reporter, cycloheximide protein synthesis inhibition counterscreen; stronger effect = higher value
About 37,000 (12%) of roughly 300,000 compounds were called active. The sample as a whole holds a higher share of actives than the screen did.
measurementKind: max response (%)
Return type: number; implicit unit %.

# input I have this compound here, Cc1cccc(C(=O)Nc2ccc(C(=O)N/N=C/c3cccc(C)n3)cc2)c1 , and I need its recorded max response.
# output 5.54

# input Next record, please: CC(=O)N1C(C)c2ccccc2C(C)(C)CC12CCCCC2 (stereo not given)
# output -1.42

# input Next record, please: CC(C)OCCCNC(=O)CN1C(=O)/C(=C/c2ccccc2F)Oc2ccccc21
# output -1.24

# input Next record, please: COC(CNC(=O)c1ccc2c(c1)ncn2-c1cc(C)cc(C)c1)OC
# output -5.14

# input Next record, please: CN(C)/C=N/c1cc(=O)n(C)c(=O)n1CC1CC1
# output -3.74

# input Next record, please: COc1cccc(-n2c(N)cc(=O)nc2SCC(=O)Nc2cc(C)on2)c1
# output -3.66

# input Next record, please: COc1ccc(C)cc1NC(=O)C(Sc1ccccc1)c1ccccc1 (stereo not given)
# output -3.77

# input Next record, please: CC(C)N1C(=S)SC(C)(C)C1n1oc(=O)n(-c2ccc(Cl)c(Cl)c2)c1=O (stereo not given)
# output -1.96

# input Next record, please: COc1ccc(-c2nc3c(c(SCC(=O)Nc4ccc(C(=O)O)cc4)n2)Cc2ccccc2O3)cc1
# output 12.1

# input Next record, please: COc1cc(OC)c(OC)cc1CN1CCN(C(=O)c2cccc3ccccc23)CC1
# output -0.856

# input Next record, please: COc1cc(C2NC(=O)NC(c3ccccc3)=C2C(C)=O)c(Br)cc1OCC(N)=O (stereo not given)
# output -1.35

# input Next record, please: Cc1ccccc1CN1CCC(C(=O)Nc2ccc(Oc3cccnc3)cc2)CC1
# output 1.17

# input Next record, please: CCCC(C(=O)n1nc(C)cc1C)C(NS(=O)(=O)c1ccc(C)cc1)c1ccccc1 (stereo not given)
# output 8.08

# input Next record, please: CCOc1ccc(C2C3=C(CCCC3=O)N(CC(=O)O)C3=C2C(=O)CCC3)cc1
# output -3.14

# input Next record, please: O=C(Cc1ccccc1Cl)N1CCOCC1
# output -3.01

# input Next record, please: COc1ccc(NC(=O)C2CCC(CNS(=O)(=O)c3csc(C(N)=O)c3)CC2)cc1OC (stereo not given)
# output -7.21

# input Next record, please: COCCCNC(=O)Cc1ccc(-n2c(C)nc3cccnc32)cc1
# output -1.61

# input Next record, please: Brc1ccc(-c2nnc(-c3ccccc3)o2)o1
# output 30.6

# input Next record, please: CC1CN(C(=O)CCC(=O)NCc2cccnc2)c2ccccc2O1 (stereo not given)
# output 0.76

# input Next record, please: Cc1scc(C(=O)NNC(=S)NCC(C)C)c1C
# output -0.894

# input Next record, please: Cc1ccccc1NC(=O)NCC1CCN(Cc2cccc(Cl)c2)CC1
# output -4.17

# input Next record, please: Oc1c(C=Nc2cccc3nsnc23)ccc2ccccc12
# output 16.7

# input Next record, please: CC(=O)c1ccc(N2CCN(S(=O)(=O)c3ccc4c(c3)CC(=O)N4C)CC2)cc1
# output 11.5

# input Next record, please: O=C(CCC1CCN(C(=O)c2cccc(Cl)c2F)CC1)Nc1ccccc1
# output 3.41

# input Next record, please: C[C@H](NC(=O)C1CCN(S(=O)(=O)c2ccccc2)CC1)C(=O)NCc1ccccc1
# output -2.6

# input Next record, please: Cc1ccc(NC(=O)Cn2cccc2C2=NC(c3ccccc3)CO2)c(C)c1 (stereo not given)
# output -4.36

# input Next record, please: O=C(Nc1cccc(Cl)c1)Nc1nnc(-c2ccccc2)o1
# output -4.47

# input Next record, please: Cc1cc(Br)ccc1NC(=O)c1cnc(N2CCN(c3ccccn3)CC2)c2ccccc12
# output -4.22

# input Next record, please: CCN1CCN(C(=O)C2CCCN(S(=O)(=O)c3ccc(OC)c(OC)c3)C2)CC1 (stereo not given)
# output -4.36

# input Next record, please: C=CCn1c(CNS(=O)(=O)c2ccc(Br)cc2)nnc1SC
# output -1.32

# input Next record, please: Cc1cccc(C)c1OC(=O)CSc1nnc(-c2ccccc2)o1
# output -2.59

# input Next record, please: CCCCN(CCCC)CC(O)Cn1c2ccccc2c(=O)c2ccccc21 (stereo not given)
# output 1.42

# input Next record, please: COc1ccccc1N1CCN(/N=C/c2ccc(O)cc2O)CC1
# output 20

# input Next record, please: Cc1nn2cc(-c3ccc(Cl)cc3)cnc2c1Br
# output 23.7

# input Next record, please: O=C(CSc1nnc(-c2ccccc2)o1)N1CCOCC1
# output -2.26

# input Next record, please: CSc1ncccc1C(=O)OCc1ccc(Br)cc1
# output 36.2

# input Next record, please: CCc1nc2nc(C)c(NS(=O)(=O)c3ccc4c(c3)CCCC4)c(=O)n2[nH]1
# output 1.61

# input Next record, please: CCNc1c(NS(=O)(=O)c2ccc(C3CCCCC3)cc2)c(=O)oc2ccccc12
# output -5.65

# input Next record, please: Cc1cccc(C(=O)Nc2ccc(C(=O)/C=C/c3cccs3)cc2)c1
# output 76

# input Next record, please: COc1cc(/C=N/N2CCN(c3ccccc3)CC2)ccc1OC(C)=O
# output 15.1

# input Next record, please: CC(C)C(c1nnnn1C1CCCCC1)N1CCN(C(=O)c2ccco2)CC1 (stereo not given)
# output -3.08

# input Next record, please: Brc1ccc(-c2noc(-c3ccccc3)n2)o1
# output 60.7

# input Next record, please: Cc1cc(OCCOc2cccc3cccnc23)c(C)cc1Cl
# output 2.3

# input Next record, please: O=C(Nc1ccc(Cl)cc1)c1cccc(OC(=S)N2CCOCC2)c1
# output 21.3

# input Next record, please: CCOC(=O)C1=C(CSc2nnnn2C)N(C)C(=O)NC1c1ccccc1 (stereo not given)
# output -4.86
